Reference source: patent US20220089638A1

# Test protocol: Circular dichroism spectroscopy, percent α-helix
# Assay type: physicochemical
# Assay context: CD spectroscopy; Table 7
Metric: α-helix (%)
Enter your answer as a number in %; do not include the unit.

| Compound | α-helix (%) |
| --- | --- |
| CC(=O)N[C@H](C(=O)N[C@@H](CO)C(=O)N[C@@H](Cc1ccccc1)C(=O)N[C@H]1CCCCNC(=S)SC[C@@H](C(=O)N[C@@H](CC(C)C)C(=O)N[C@@H](CC(C)C)C(=O)N[C@@H](CO)C(=O)N[C@@H](CCCNC(=N)N)C(N)=O)NC(=O)[C@H](Cc2c[nH]c3ccccc23)NC(=O)[C@H](Cc2ccc(O)cc2)NC(=O)[C@H](CCC(N)=O)NC1=O)[C@@H](C)O [^DTCPMI] | 62.2 |
| CC(=O)N[C@H](C(=O)N[C@@H](CO)C(=O)N[C@@H](Cc1ccccc1)C(=O)N[C@@H](C)C(=O)N[C@H]1CSC(=S)NCCCC[C@@H](C(=O)N[C@@H](CC(C)C)C(=O)N[C@@H](CO)C(=O)N2CCC[C@H]2C(N)=O)NC(=O)[C@H](CC(N)=O)NC(=O)[C@H](Cc2c[nH]c3ccccc23)NC(=O)[C@H](Cc2ccc(O)cc2)NC1=O)[C@@H](C)O [PMI(5,9)-b] | 9.58 |
| CC(=O)N[C@H](C(=O)N[C@@H](CO)C(=O)N[C@@H](Cc1ccccc1)C(=O)N[C@@H](C)C(=O)N[C@@H](CCC(=O)O)C(=O)N[C@@H](Cc1ccc(O)cc1)C(=O)N[C@@H](Cc1c[nH]c2ccccc12)C(=O)N[C@H]1CCCCNC(=S)SC[C@@H](C(N)=O)NC(=O)[C@H](CO)NC(=O)[C@H](CC(C)C)NC(=O)[C@H](CC(C)C)NC1=O)[C@@H](C)O [PMI(8,12)-a] | 43.3 |
| CC(=O)N[C@H](C(=O)N[C@@H](CO)C(=O)N[C@@H](Cc1ccccc1)C(=O)N[C@@H](C)C(=O)N[C@@H](CCC(=O)O)C(=O)N[C@@H](Cc1ccc(O)cc1)C(=O)N[C@@H](Cc1c[nH]c2ccccc12)C(=O)N[C@H]1CSC(=S)NCCCC[C@@H](C(N)=O)NC(=O)[C@H](CO)NC(=O)[C@H](CC(C)C)NC(=O)[C@H](CC(C)C)NC1=O)[C@@H](C)O [PMI(8,12)-b] | 0.23 |
| CC(=O)N[C@H](C(=O)N[C@@H](CO)C(=O)N[C@@H](Cc1ccccc1)C(=O)N[C@@H](C)C(=O)N[C@H]1CCCCNC(=S)SC[C@@H](C(=O)N[C@@H](CC(C)C)C(=O)N[C@@H](CO)C(=O)N2CCC[C@H]2C(N)=O)NC(=O)[C@H](CC(N)=O)NC(=O)[C@H](Cc2c[nH]c3ccccc23)NC(=O)[C@H](Cc2ccc(O)cc2)NC1=O)[C@@H](C)O [PMI(5,9)-a] | 6.88 |

Given the compound CC(=O)N[C@H](C(=O)N[C@H]1CCCCNC(=S)SC[C@@H](C(=O)N[C@@H](Cc2c[nH]c3ccccc23)C(=O)N[C@@H](CC(N)=O)C(=O)N[C@@H](CC(C)C)C(=O)N[C@@H](CC(C)C)C(=O)N[C@@H](CO)C(=O)N2CCC[C@H]2C(N)=O)NC(=O)[C@H](CCC(=O)O)NC(=O)[C@H](C)NC(=O)[C@H](Cc2ccccc2)NC1=O)[C@@H](C)O [PMI(2,6)-a] , what is its reported α-helix (%)?
15.3

----------
# Test protocol: Circular dichroism spectroscopy, percent α-helix
# Type: physicochemical
# Assay context: CD spectroscopy; Table 3
Where a SMILES comes first, the peptide text is derived from it.
Binary classification by α-helix (%), with 6% as an inclusive lower bound for y; all other cases are n.

Does `CC(=O)N[C@H](C(=O)N[C@@H](CO)C(=O)N[C@@H](Cc1ccccc1)C(=O)N[C@@H](C)C(=O)N[C@@H](CCC(=O)O)C(=O)N[C@@H](Cc1ccc(O)cc1)C(=O)N[C@@H](Cc1c[nH]c2ccccc12)C(=O)N[C@H]1CSC(=S)NCCCC[C@@H](C(N)=O)NC(=O)[C@H](CO)NC(=O)[C@H](CC(C)C)NC(=O)[C@H](CC(C)C)NC1=O)[C@@H](C)O` have a reported α-helix (%) of at least 6%?
n

Does CC(=O)N[C@H](C(=O)N[C@@H](CO)C(=O)N[C@@H](Cc1ccccc1)C(=O)N[C@@H](C)C(=O)N[C@@H](CCC(=O)O)C(=O)N[C@@H](Cc1ccc(O)cc1)C(=O)N[C@@H](Cc1c[nH]c2ccccc12)C(=O)N[C@@H](CC(N)=O)C(=O)N[C@@H](CC(C)C)C(=O)N[C@@H](CC(C)C)C(=O)N[C@@H](CO)C(=O)N1CCC[C@H]1C(N)=O)[C@@H](C)O [PMI-0, reference compound] (Ac-TSFAEYWNLLSP-NH2) have a reported α-helix (%) of at least 6%?
n

Does `CC(=O)N[C@H](C(=O)N[C@@H](CO)C(=O)N[C@@H](Cc1ccccc1)C(=O)N[C@H]1CCCCNC(=S)SC[C@@H](C(=O)N[C@@H](CC(C)C)C(=O)N[C@@H](CC(C)C)C(=O)N[C@@H](CO)C(=O)N2CCC[C@H]2C(N)=O)NC(=O)[C@H](Cc2c[nH]c3ccccc23)NC(=O)[C@H](Cc2ccc(O)cc2)NC(=O)[C@H](CCC(=O)O)NC1=O)[C@@H](C)O` have a reported α-helix (%) of at least 6%?
y

Does `CC(=O)N[C@H](C(=O)N[C@@H](CO)C(=O)N[C@@H](Cc1ccccc1)C(=O)N[C@@H](C)C(=O)N[C@@H](CCC(=O)O)C(=O)N[C@@H](Cc1ccc(O)cc1)C(=O)N[C@@H](Cc1c[nH]c2ccccc12)C(=O)N[C@H]1CCCCNC(=S)SC[C@@H](C(N)=O)NC(=O)[C@H](CO)NC(=O)[C@H](CC(C)C)NC(=O)[C@H](CC(C)C)NC1=O)[C@@H](C)O` have a reported α-helix (%) of at least 6%?
y

Does `CC(=O)N[C@H]1CCCCNC(=S)SC[C@@H](C(=O)N[C@@H](Cc2ccc(O)cc2)C(=O)N[C@@H](Cc2c[nH]c3ccccc23)C(=O)N[C@@H](CC(N)=O)C(=O)N[C@@H](CC(C)C)C(=O)N[C@@H](CC(C)C)C(=O)N[C@@H](CO)C(=O)N2CCC[C@H]2C(N)=O)NC(=O)[C@H](C)NC(=O)[C@H](Cc2ccccc2)NC(=O)[C@H](CO)NC1=O` have a reported α-helix (%) of at least 6%?
y

Does `CC(=O)N[C@H](C(=O)N[C@@H](CO)C(=O)N[C@@H](Cc1ccccc1)C(=O)N[C@@H](C)C(=O)N[C@H]1CSC(=S)NCCCC[C@@H](C(=O)N[C@@H](CC(C)C)C(=O)N[C@@H](CO)C(=O)N2CCC[C@H]2C(N)=O)NC(=O)[C@H](CC(N)=O)NC(=O)[C@H](Cc2c[nH]c3ccccc23)NC(=O)[C@H](Cc2ccc(O)cc2)NC1=O)[C@@H](C)O` have a reported α-helix (%) of at least 6%?
n
